Cited source: the supplement of paper PMC10126150

System: ATP;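 also: ATP exposure 15 min at 22 °C before imaging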
Assay: switch fluorescence ratio, 500 uM ATP over buffer (Cy3 cluster intensity, sum of 5 cycles each) (fold (ratio)); higher = stronger signal-on switching upon ATP binding; sequences stand for … in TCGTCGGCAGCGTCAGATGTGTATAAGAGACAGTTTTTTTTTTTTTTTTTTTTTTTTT…TC
Details: aptamer strand: ATP DNA aptamer (quencher-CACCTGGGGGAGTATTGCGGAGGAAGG + anchor), 100 nM annealed; ATP concentration: 500 uM
measurement.kind: switch fluorescence ratio

Past entries and their recorded results:
query: Looking for the measured switch fluorescence ratio of GCAAGGGTGT , can you help?
result: 1.15

query: Further, for ATTTAGCTTA ?
result: 1.01

query: Further, for CGATTACGAT ?
result: 1.01

query: Further, for GGTAGTCCAC ?
result: 1.01

query: Further, for ATCGCGGCCG ?
result: 1.02

For every item in the list below, what is its measured switch fluorescence ratio?
1. TTCGTGAATT
2. CGGGGGTAG
3. TATTGTAGGG
4. TCAATCTGTG
5. GGCCTAGAGG

result:
[1.11, 0.998, 0.97, 1.01, 1.01]

###

Kindly state switch fluorescence ratio for each of the entries shown.
System: ATP;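 also: ATP exposure 15 min at 22 °C before imaging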
Assay: switch fluorescence ratio, 500 uM ATP over buffer (Cy3 cluster intensity, sum of 5 cycles each) (fold (ratio)); higher = stronger signal-on switching upon ATP binding; sequences stand for … in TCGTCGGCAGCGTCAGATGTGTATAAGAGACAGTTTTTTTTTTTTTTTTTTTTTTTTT…TC
Conditions: aptamer strand: ATP DNA aptamer (quencher-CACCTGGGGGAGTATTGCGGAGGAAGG + anchor), 100 nM annealed; ATP concentration: 500 uM
Give bare numbers.

Past entries and their recorded results:
query: Looking for the measured switch fluorescence ratio of GGTAGAAGGG , can you help?
result: 0.989

query: Further, for ATGAGGGTCG ?
result: 0.993

query: Further, for TTCTTCCTTT ?
result: 1.03

query: Further, for ATCGGCATTT ?
result: 1.03

query: Further, for GCGTTTGGAC ?
result: 1.06

For every item in the list below, what is its measured switch fluorescence ratio?
1. TCATTGGTAG
2. AGCATTATCT

result:
1. 1
2. 1.09

For every item in the list below, what is its measured switch fluorescence ratio?
1. GCTATAGGTG
2. CAAGTGATAT
3. TTTGTTTGCG
4. AATTGGGCTT
5. TTATTTAGCA
6. GTTATTTGGT

result:
1: 1.27; 2: 1.05; 3: 1.03; 4: 1.02; 5: 0.987; 6: 0.992

###

Test system: ATP;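 also: ATP exposure 15 min at 22 °C before imaging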
Experiment: switch fluorescence ratio, 500 uM ATP over buffer (Cy3 cluster intensity, sum of 5 cycles each) (fold (ratio)); higher = stronger signal-on switching upon ATP binding; sequences stand for … in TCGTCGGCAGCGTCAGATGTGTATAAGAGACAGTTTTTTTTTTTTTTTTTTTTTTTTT…TC
Details: aptamer strand: ATP DNA aptamer (quencher-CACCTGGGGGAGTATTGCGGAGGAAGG + anchor), 100 nM annealed; ATP concentration: 500 uM
Kindly state switch fluorescence ratio for each of the entries shown.
Give bare numbers.

query: Looking for the measured switch fluorescence ratio of TGGTGTCAGT , can you help?
result: 0.977

For every item in the list below, what is its measured switch fluorescence ratio?
1. GGGGAGGTCT
2. GTGGAAGCCG
3. TTTTACAGAT

result:
1. 1.01
2. 1.01
3. 0.975
